Reported Mean efficacy at 100 μM with 1 μM of SNP, [% of YC-1] values follow for various compounds
TARGET: α1 and β1 subunits of guanylate cyclase (sGC), expressed in Sf9 cells (Homo sapiens, UniProt Q02108+Q02153)
Construct: made in house; host or cells: Sf9 insect cells (baculovirus co-infection); high-speed supernatant used unpurified
Sequence (Q02108 whole entry): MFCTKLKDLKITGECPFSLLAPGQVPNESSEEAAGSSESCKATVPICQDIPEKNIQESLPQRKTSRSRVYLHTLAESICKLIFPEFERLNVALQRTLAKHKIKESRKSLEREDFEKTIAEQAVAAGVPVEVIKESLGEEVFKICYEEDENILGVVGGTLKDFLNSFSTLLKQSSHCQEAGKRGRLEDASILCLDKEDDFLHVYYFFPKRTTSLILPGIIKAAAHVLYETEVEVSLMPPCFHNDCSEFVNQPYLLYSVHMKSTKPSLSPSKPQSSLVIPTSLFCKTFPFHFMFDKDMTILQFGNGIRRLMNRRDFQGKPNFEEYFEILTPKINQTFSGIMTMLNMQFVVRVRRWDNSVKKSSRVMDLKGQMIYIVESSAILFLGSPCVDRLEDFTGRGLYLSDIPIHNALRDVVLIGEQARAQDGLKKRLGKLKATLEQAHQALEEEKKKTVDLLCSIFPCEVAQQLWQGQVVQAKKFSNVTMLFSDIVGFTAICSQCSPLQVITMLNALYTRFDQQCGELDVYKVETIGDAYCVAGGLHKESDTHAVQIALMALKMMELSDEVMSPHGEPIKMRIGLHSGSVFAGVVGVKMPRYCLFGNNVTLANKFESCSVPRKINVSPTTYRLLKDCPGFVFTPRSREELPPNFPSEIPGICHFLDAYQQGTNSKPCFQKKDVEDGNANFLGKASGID
Sequence (Q02153 whole entry): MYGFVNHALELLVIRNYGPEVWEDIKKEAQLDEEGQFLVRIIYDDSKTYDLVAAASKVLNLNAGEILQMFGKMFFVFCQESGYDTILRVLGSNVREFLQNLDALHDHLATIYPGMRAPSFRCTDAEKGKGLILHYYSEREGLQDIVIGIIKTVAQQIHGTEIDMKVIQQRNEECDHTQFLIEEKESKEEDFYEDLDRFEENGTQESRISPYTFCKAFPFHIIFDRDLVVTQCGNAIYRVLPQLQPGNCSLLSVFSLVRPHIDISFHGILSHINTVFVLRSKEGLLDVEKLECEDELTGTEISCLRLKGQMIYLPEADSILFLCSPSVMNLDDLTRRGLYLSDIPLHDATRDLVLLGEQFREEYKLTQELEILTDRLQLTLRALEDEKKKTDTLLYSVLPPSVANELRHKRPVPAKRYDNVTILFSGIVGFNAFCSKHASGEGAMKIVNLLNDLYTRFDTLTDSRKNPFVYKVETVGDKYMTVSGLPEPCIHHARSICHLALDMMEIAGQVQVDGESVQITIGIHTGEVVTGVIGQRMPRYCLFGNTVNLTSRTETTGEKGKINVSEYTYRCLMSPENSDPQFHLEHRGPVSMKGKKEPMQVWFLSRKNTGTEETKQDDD
MEASUREMENT_NOTES: Guanylate Cyclase Assay (formation of cyclic GMP from GTP)
Type: biochemical
APPLIED_CONDITIONS: compound at 100 μM with 1 μM sodium nitroprusside (SNP); normalized to 100 μM YC-1 (without SNP) as 100%

> print(dat)
                                   compound  endpoint.value
1  CCCC(CO)NC(=O)c1ccc(Oc2nn(Cc3ccccc3)c3ccccc23)o1 (stereo not drawn)    25 % of YC-1
2  Clc1ccc(NN=Cc2ccc(Oc3nn(Cc4ccccc4)c4ccccc34)o2)nn1    17 % of YC-1
3     OCc1ccc(Cn2nc(OCc3ccccc3)c3ccccc32)o1    11 % of YC-1

Given the compound OCc1ccc(-c2nn(Cc3ccccc3)c3ccccc23)o1 [YC-1, reference compound] , what is its reported Mean efficacy at 100 μM with 1 μM of SNP, [% of YC-1]? 224 % of YC-1

# repeat for OCc1cccc(Oc2nn(Cc3ccccc3)c3ccccc23)n1 20 % of YC-1

Another compound to look at: O=C(NCC(O)c1ccccc1)c1ccccc1Oc1nn(Cc2ccccc2)c2ccccc12 (stereo not drawn) 13 % of YC-1

Please answer likewise for FC(F)(F)c1cncc(Oc2nn(Cc3ccccc3)c3ccccc23)c1 15 % of YC-1

Also O=C(NCC1CCCCC1O)c1ccccc1Oc1nn(Cc2ccccc2)c2ccccc12 (stereo not drawn) ? 12 % of YC-1

Moving on to CN1CCCC1CCNC(=O)c1ccccc1Oc1nn(Cc2ccccc2)c2ccccc12 (stereo not drawn) 15 % of YC-1
